TESTED ON: Corticotropin-releasing factor receptor 2/Corticotropin-releasing factor-binding protein (Homo sapiens, UniProt P24387+Q13324)
Sequence (Q13324 whole entry): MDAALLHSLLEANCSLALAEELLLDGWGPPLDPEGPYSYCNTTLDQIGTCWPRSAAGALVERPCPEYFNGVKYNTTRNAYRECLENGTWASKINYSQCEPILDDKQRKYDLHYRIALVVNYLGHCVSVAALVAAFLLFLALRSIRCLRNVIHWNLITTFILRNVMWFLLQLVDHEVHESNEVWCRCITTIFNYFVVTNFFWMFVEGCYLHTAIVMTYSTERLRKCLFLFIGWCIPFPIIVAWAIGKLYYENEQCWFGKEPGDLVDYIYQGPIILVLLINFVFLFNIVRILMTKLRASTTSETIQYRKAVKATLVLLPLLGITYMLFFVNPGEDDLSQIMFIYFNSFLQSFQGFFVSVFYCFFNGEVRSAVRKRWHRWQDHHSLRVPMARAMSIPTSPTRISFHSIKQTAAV
Sequence (P24387 whole entry): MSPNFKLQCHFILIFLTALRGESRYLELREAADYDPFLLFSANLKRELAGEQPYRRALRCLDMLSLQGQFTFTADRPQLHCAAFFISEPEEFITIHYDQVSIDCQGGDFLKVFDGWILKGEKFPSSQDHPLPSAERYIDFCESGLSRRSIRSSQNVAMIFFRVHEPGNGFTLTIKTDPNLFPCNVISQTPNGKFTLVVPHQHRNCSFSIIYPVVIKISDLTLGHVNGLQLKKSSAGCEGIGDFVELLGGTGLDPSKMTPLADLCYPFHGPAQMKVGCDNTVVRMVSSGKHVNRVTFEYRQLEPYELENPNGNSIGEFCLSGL
MEASUREMENT DESCRIPTION: Dose Response confirmation of uHTS hits for small molecule antagonists of the CRF-binding protein and CRF-R2 receptor complex.
Format: functional
MEASUREMENT PARAMETERS: read-out: IC50_Mean
The source made the active and inactive calls. Rule as the data show it: actives have a measured IC50 and inactives only a lower limit.
Outcome codes: 1 for active, -1 for inactive

MOLECULE: Cc1cc(NS(=O)(=O)c2c(C(=O)N3CCOCC3)c(C)n(C)c2C)ccc1Br
GROUP: -1
--
MOLECULE: O=C(CNS(=O)(=O)c1cccs1)NCCc1ccc(Cl)cc1
GROUP: -1
--
MOLECULE: Cc1ccc(S(=O)(=O)N(Cc2ccccc2)c2ccccc2C(=O)NCc2ccco2)cc1
GROUP: 1
--
MOLECULE: O=[N+]([O-])c1ccc(O)c(Nc2ncnc3ccccc23)c1
GROUP: -1
--
MOLECULE: Cc1ccc(NC(=O)Cn2ncn3c(cc4ccccc43)c2=O)cc1F
GROUP: 1
--
MOLECULE: CCOP(=O)(OCC)c1cc(CC)ccc1O
GROUP: -1
--
MOLECULE: O=[N+]([O-])c1cc(-c2ccccc2)cc([N+](=O)[O-])c1O
GROUP: 1
--
MOLECULE: CCOC(=O)C(CCCCOc1ccc([N+](=O)[O-])cc1)C(=O)OCC
GROUP: 1
--
MOLECULE: Cc1cc(C)c2nc(NC(=O)c3ccc4c(=O)n5c(nc4c3)CCCCC5)sc2c1
GROUP: -1
--
MOLECULE: O=C(Nc1cccnc1)c1ccc(-c2ccc(Cl)cc2)o1
GROUP: -1
--
MOLECULE: COc1ccc(-c2cc(C)no2)cc1S(=O)(=O)N1CCN(C(=O)c2ccco2)CC1
GROUP: -1
--
MOLECULE: CCCCCCCCCCCC(=O)NC(Cc1ccc(OC)c([N+](=O)[O-])c1)C(=O)O (stereo not drawn)
GROUP: 1
--
MOLECULE: COC(=O)C1=CN(Cc2ccc(OC)cc2)C=C(C(=O)OC)C1c1cccs1
GROUP: 1
